# PROTOCOL DESCRIPTION: Physicochemical and biopharmaceutical properties of the drug substance (PBPK model input)
# COND: aqueous buffer; 37° C.; across pH 1.2-9.6
QUANTITY KIND: solubility

The molecule listed as Cn1cc(S(=O)(=O)[C@@](C)(F)C2CCN(C(=O)Nc3ccon3)CC2)c(C(F)F)n1 [Compound I] shows solubility equal to ~43 µg/mL

* * *

# PROTOCOL DESCRIPTION: HFrEF study Part 1 (SAD Cohorts 1 and 2): plasma pharmacokinetics
# Assay type: in vivo, human
# COND: human, plasma, oral, 550 mg, SAD Cohort 1, Split dose 550 mg (n = 2); read-out: Cmax
QUANTITY KIND: Cmax (ng/mL)
# number only, unit ng/mL dropped from output

The compound listed as `Cn1cc(S(=O)(=O)[C@@](C)(F)C2CCN(C(=O)Nc3ccon3)CC2)c(C(F)F)n1` shows Cmax equal to 5280

* * *

# PROTOCOL DESCRIPTION: Single ascending oral dose study in healthy volunteers: plasma pharmacokinetics
# Format: in vivo, human
# COND: human, plasma, oral, 10 mg; read-out: AUC0-48, Geometric Mean
QUANTITY KIND: AUC(0-t) (ng·h/mL)
# number only, unit ng·h/mL dropped from output

The compound listed as `Cn1cc(S(=O)(=O)[C@@](C)(F)C2CCN(C(=O)Nc3ccon3)CC2)c(C(F)F)n1` shows AUC(0-t) equal to 2980

* * *

# PROTOCOL DESCRIPTION: Single ascending oral dose study in healthy volunteers: urinary excretion and renal clearance
# Format: in vivo, human
# COND: human, plasma and urine, po, all doses; read-out: renal clearance, mean (converted)
QUANTITY KIND: CL renal

The compound listed as Cn1cc(S(=O)(=O)[C@@](C)(F)C2CCN(C(=O)Nc3ccon3)CC2)c(C(F)F)n1 [Compound I] shows CL renal equal to ~9.5 mL/min

* * *

# PROTOCOL DESCRIPTION: Single ascending oral dose study in healthy volunteers: plasma pharmacokinetics
# Type: in vivo, human
# COND: human, plasma, oral, 100 mg; read-out: AUC0-48, Geometric Mean
QUANTITY KIND: AUC(0-t) (ng·h/mL)
# number only, unit ng·h/mL dropped from output

The molecule listed as Cn1cc(S(=O)(=O)[C@@](C)(F)C2CCN(C(=O)Nc3ccon3)CC2)c(C(F)F)n1 [Compound I] shows AUC(0-t) equal to 21100

* * *

# PROTOCOL DESCRIPTION: Single ascending oral dose study in healthy volunteers: plasma pharmacokinetics
# Type: in vivo, human
# COND: human, plasma, oral, 525 mg; read-out: Cmax, Median
QUANTITY KIND: Cmax (ng/mL)
# number only, unit ng/mL dropped from output

The compound listed as Cn1cc(S(=O)(=O)[C@@](C)(F)C2CCN(C(=O)Nc3ccon3)CC2)c(C(F)F)n1 [Compound I] shows Cmax equal to 2240

* * *

# PROTOCOL DESCRIPTION: Single ascending oral dose study in healthy volunteers: plasma pharmacokinetics
# Format: in vivo, human
# COND: human, plasma, oral, combined 350 and 525 mg group; read-out: t1/2, range
QUANTITY KIND: half-life

The molecule listed as `Cn1cc(S(=O)(=O)[C@@](C)(F)C2CCN(C(=O)Nc3ccon3)CC2)c(C(F)F)n1` shows half-life equal to 11 to 22 h

* * *

# PROTOCOL DESCRIPTION: Single ascending oral dose study in healthy volunteers: plasma pharmacokinetics
# Format: in vivo, human
# COND: human, plasma, oral, 175 mg; read-out: Cmax, Mean
QUANTITY KIND: Cmax (ng/mL)
# number only, unit ng/mL dropped from output

The molecule listed as `Cn1cc(S(=O)(=O)[C@@](C)(F)C2CCN(C(=O)Nc3ccon3)CC2)c(C(F)F)n1` shows Cmax equal to 1320

* * *

# PROTOCOL DESCRIPTION: Single ascending oral dose study in healthy volunteers: plasma pharmacokinetics
# Assay type: in vivo, human
# COND: human, plasma, oral, 10 mg; read-out: Mean Residence Time, Median
QUANTITY KIND: MRT (h)
# number only, unit h dropped from output

The compound listed as `Cn1cc(S(=O)(=O)[C@@](C)(F)C2CCN(C(=O)Nc3ccon3)CC2)c(C(F)F)n1` shows MRT equal to 20.1

* * *

# PROTOCOL DESCRIPTION: Pharmacokinetics in beagle dogs (single doses)
# Format: in vivo
# COND: beagle, plasma; 1-compartmental model analysis of in vivo data in dog
QUANTITY KIND: Vd (L/kg)
# number only, unit L/kg dropped from output

The molecule listed as `Cn1cc(S(=O)(=O)[C@@](C)(F)C2CCN(C(=O)Nc3ccon3)CC2)c(C(F)F)n1` shows Vd equal to 1.51

* * *

# PROTOCOL DESCRIPTION: Single ascending oral dose study in healthy volunteers: plasma pharmacokinetics
# Type: in vivo, human
# COND: human, plasma, oral, 25 mg; read-out: AUC0-48, Mean
QUANTITY KIND: AUC(0-t) (ng·h/mL)
# number only, unit ng·h/mL dropped from output

The molecule listed as `Cn1cc(S(=O)(=O)[C@@](C)(F)C2CCN(C(=O)Nc3ccon3)CC2)c(C(F)F)n1` shows AUC(0-t) equal to 6500

* * *

# PROTOCOL DESCRIPTION: Single ascending oral dose study in healthy volunteers: plasma pharmacokinetics
# Type: in vivo, human
# COND: human, plasma, oral, 350 mg, 48 Hours Postdose; 350 mg; read-out: Plasma concentration, Median
QUANTITY KIND: concentration at 48 h (ng/mL)
# number only, unit ng/mL dropped from output

The compound listed as `Cn1cc(S(=O)(=O)[C@@](C)(F)C2CCN(C(=O)Nc3ccon3)CC2)c(C(F)F)n1` shows concentration at 48 h equal to 350

* * *

# PROTOCOL DESCRIPTION: Single ascending oral dose study in healthy volunteers: plasma pharmacokinetics
# Type: in vivo, human
# COND: human, plasma, oral, 50 mg; read-out: Vz/F, Mean
QUANTITY KIND: Vd/F (L)
# number only, unit L dropped from output

The molecule listed as `Cn1cc(S(=O)(=O)[C@@](C)(F)C2CCN(C(=O)Nc3ccon3)CC2)c(C(F)F)n1` shows Vd/F equal to 87.9

* * *

# PROTOCOL DESCRIPTION: Single ascending oral dose study in healthy volunteers: plasma pharmacokinetics
# Type: in vivo, human
# COND: human, plasma, oral, 175 mg, 6 Hours Postdose; 175 mg; read-out: Plasma concentration, Geometric Mean
QUANTITY KIND: concentration at 6 h (ng/mL)
# number only, unit ng/mL dropped from output

The compound listed as `Cn1cc(S(=O)(=O)[C@@](C)(F)C2CCN(C(=O)Nc3ccon3)CC2)c(C(F)F)n1` shows concentration at 6 h equal to 1260

* * *

# PROTOCOL DESCRIPTION: Single ascending oral dose study in healthy volunteers: plasma pharmacokinetics
# Type: in vivo, human
# COND: human, plasma, oral, 175 mg, 12 Hours Postdose; 175 mg; read-out: Plasma concentration, Geometric Mean
QUANTITY KIND: concentration at 12 h
Give me the value, and tack the unit on after it.

The compound listed as `Cn1cc(S(=O)(=O)[C@@](C)(F)C2CCN(C(=O)Nc3ccon3)CC2)c(C(F)F)n1` shows concentration at 12 h equal to 1040 ng/mL

* * *

# PROTOCOL DESCRIPTION: Single ascending oral dose study in healthy volunteers: plasma pharmacokinetics
# Assay type: in vivo, human
# COND: human, plasma, oral, 175 mg; read-out: AUC0-48, Mean
QUANTITY KIND: AUC(0-t) (ng·h/mL)
# number only, unit ng·h/mL dropped from output

The compound listed as `Cn1cc(S(=O)(=O)[C@@](C)(F)C2CCN(C(=O)Nc3ccon3)CC2)c(C(F)F)n1` shows AUC(0-t) equal to 32800

* * *

# PROTOCOL DESCRIPTION: Single ascending oral dose study in healthy volunteers: plasma pharmacokinetics
# Format: in vivo, human
# COND: human, plasma, oral, 10 mg; read-out: Cmax, Geometric Mean
QUANTITY KIND: Cmax (ng/mL)
# number only, unit ng/mL dropped from output

The compound listed as `Cn1cc(S(=O)(=O)[C@@](C)(F)C2CCN(C(=O)Nc3ccon3)CC2)c(C(F)F)n1` shows Cmax equal to 138

* * *

# PROTOCOL DESCRIPTION: Single ascending oral dose study in healthy volunteers: plasma pharmacokinetics
# Format: in vivo, human
# COND: human, plasma, oral, 525 mg, 6 Hours Postdose; 525 mg; read-out: Plasma concentration, Median
QUANTITY KIND: concentration at 6 h (ng/mL)
# number only, unit ng/mL dropped from output

The compound listed as `Cn1cc(S(=O)(=O)[C@@](C)(F)C2CCN(C(=O)Nc3ccon3)CC2)c(C(F)F)n1` shows concentration at 6 h equal to 2220

Values compiled from patent US20220265629A1.
